# Tested on: HEK293T
# METHOD: plasma membrane surface immunostaining intensity (anti-HA, deep receptor scanning) (arbitrary fluorescence units); higher = higher plasma membrane expression
# ASSAY CONDITIONS: GPCR class: A
MEASUREMENT TYPE: plasma membrane surface immunostaining intensity
// response body must contain only the number

Asked: Looking for the measured plasma membrane surface immunostaining intensity of MSNITDPQMWDFDDLNFTGMPPADEDYSPCMLETETLNKYVVIIAYALVFLLSLLGNSLVMLVILYSRVGRSVTDVYLLNLALADLLFALTLPIWAASKVNGWIFGTFLCKVVSLLKEVNFYSGILLLACISVDRYLAIVHATRTLTQKRHLVKFVCLGCWGLSMNLSLPFFLFRQAYHPNNSSPVCYEVLGNDTAKWRMVLRILPHTFGFIVPLFVMLFCYGFTLRTLFKAHMGQKHRAMRVIFAVVLIFLLCWLPYNLVLLADTLMRTQVIQESCERRNNIGRALDATEILGFLHSCLNPIIYAFIGQNFRHGFLKILAMHGLVSKEFLARHRVTSYTSSSVNVSSNL [CXCR1] , can you help?
Given back: 5900

---

# Tested on: HEK293T
# METHOD: plasma membrane surface immunostaining intensity (anti-HA, deep receptor scanning) (arbitrary fluorescence units); higher = higher plasma membrane expression
# ASSAY CONDITIONS: GPCR class: A
MEASUREMENT TYPE: plasma membrane surface immunostaining intensity
// response body must contain only the number

INPUT SEQUENCE	TARGET ENTITY	VALUE MEASURED
MNPTDIADTTLDESIYSNYYLYESIPKPCTKEGIKAFGELFLPPLYSLVFVFGLLGNSVVVLVLFKYKRLRSMTDVYLLNLAISDLLFVFSLPFWGYYAADQWVFGLGLCKMISWMYLVGFYSGIFFVMLMSIDRYLAIVHAVFSLRARTLTYGVITSLATWSVAVFASLPGFLFSTCYTERNHTYCKTKYSLNSTTWKVLSSLEINILGLVIPLGIMLFCYSMIIRTLQHCKNEKKNKAVKMIFAVVVLFLGFWTPYNIVLFLETLVELEVLQDCTFERYLDYAIQATETLAFVHCCLNPIIYFFLGEKFRKYILQLFKTCRGLFVLCQYCGLLQIYSADTPSSSYTQSTMDHDLHDAL [CCR4]	HEK293T	186

Next up:
Asked: Looking for the measured plasma membrane surface immunostaining intensity of MSGESMNFSDVFDSSEDYFVSVNTSYYSVDSEMLLCSLQEVRQFSRLFVPIAYSLICVFGLLGNILVVITFAFYKKARSMTDVYLLNMAIADILFVLTLPFWAVSHATGAWVFSNATCKLLKGIYAINFNCGMLLLTCISMDRYIAIVQATKSFRLRSRTLPRSKIICLVVWGLSVIISSSTFVFNQKYNTQGSDVCEPKYQTVSEPIRWKLLMLGLELLFGFFIPLMFMIFCYTFIVKTLVQAQNSKRHKAIRVIIAVVLVFLACQIPHNMVLLVTAANLGKMNRSCQSEKLIGYTKTVTEVLAFLHCCLNPVLYAFIGQKFRNYFLKILKDLWCVRRKYKSSGFSCAGRYSENISRQTSETADNDNASSFTM [CCR6] , can you help?
Given back: 418

---

# Tested on: HEK293T
# METHOD: plasma membrane surface immunostaining intensity (anti-HA, deep receptor scanning) (arbitrary fluorescence units); higher = higher plasma membrane expression
# ASSAY CONDITIONS: GPCR class: A (Olfactory)
MEASUREMENT TYPE: plasma membrane surface immunostaining intensity
// response body must contain only the number

INPUT SEQUENCE	VALUE MEASURED
MLGPAYNHTMETPASFLLVGIPGLQSSHLWLAISLSAMYITALLGNTLIVTAIWMDSTRHEPMYCFLCVLAAVDIVMASSVVPKMVSIFCSGDSSISFSACFTQMFFVHLATAVETGLLLTMAFDRYVAICKPLHYKRILTPQVMLGMSMAVTIRAVTFMTPLSWMMNHLPFCGSNVVVHSYCKHIALARLACADPVPSSLYSLIGSSLMVGSDVAFIAASYILILRAVFDLSSKTAQLKALSTCGSHVGVMALYYLPGMASIYAAWLGQDIVPLHTQVLLADLYVIIPATLNPIIYGMRTKQLLEGIWSYLMHFLFDHSNLGS [OR52I1]	157

Asked: Looking for the measured plasma membrane surface immunostaining intensity of MEEENATLLTEFVLTGFLYQPQWKIPLFLAFLVIYLITIMGNLGLIAVIWKDPHLHIPMYLLLGNLAFVDAWISSTVTPKMLNNFLAKSKMISLSECKIQFFSIAIGVTTECFLLATMAYDRYVAICKPLLYPAIMTNGLCIRLLILSYIAGILHALIHEGFLFRLTFCNSNIVHHIYCDTIPLSKISCTDSSINFLMVFIFSGSIQVFSIVTILISYTFVLFTVLEKKSDKGVRKAFSTCGAHLFSVCLYYGPLLLMYVGPASPQADGQNMVEPLFYTVIIPLLNPIIYSLRNKQVIVSFIKMLKRNVKVSY [OR5H15] , can you help?
Given back: 181

Asked: // next record MANVTLVTGFLLMGFSNIQKLRILYGVLFLLIYLAALMSNLLIITLITLDVKLQTPMYFFLKNLSFLDVFLVSVPIPKFIVNNLTHNNSISILGCAFQLLLMTSFSAGEIFILTAMSYDRYVAICCPLNYEVIMNTGVCVLMASVSWAIGGLFGTAYTAGTFSMPFCGSSVIPQFFCDVPSLLRISCSETLMVIYAGIGVGACLSISCFICIVISYIYIFSTVLKIPTTKGQSKAFSTCFPHLTVFTVFIITAYFVYLKPPSNSPSVIDRLLSVIYTVMPPVFNPVTYSLRNNDMKCALIRLLQKTYGQEAYFI [OR14A2]
Given back: 133

Asked: // next record MEGNQTWITDITLLGFQVGPALAILLCGLFSVFYTLTLLGNGVIFGIICLDSKLHTPMYFFLSHLAIIDMSYASNNVPKMLANLMNQKRTISFVPCIMQTFLYLAFAVTECLILVVMSYDRYVAICHPFQYTVIMSWRVCTILVLTSWSCGFALSLVHEILLLRLPFCGPRDVNHLFCEILSVLKLACADTWVNQVVIFATCVFVLVGPLSLILVSYMHILGAILKIQTKEGRIKAFSTCSSHLCVVGLFFGIAMVVYMVPDSNQREEQEKMLSLFHSVFNPMLNPLIYSLRNAQLKGALHRALQRKRSMRTVYGLCL [OR2A2]
Given back: 129

Asked: // next record MAWENQTFNSDFILLGIFNHSPPHTFLFFLVLGIFLVAFMGNSVMVLLIYLDTQLHTPMYFLLSQLSLMDLMLICTTVPKMAFNYLSGSKSISMAGCVTQIFFYISLSGSECFLLAVMAYDRYIAICHPLRYTNLMNPKICGLMATFSWILGSTDGIIDAVATFSFSFCGSREIAHFFCEFPSLLILSCNDTSIFEEVIFICCIVMLVFPVAIIIASYARVILAVIHMGSGEGRCKAFTTCSSHLMVVGMYYGAALFMYIRPTSDHSPTQDKMVSVFYTILTPMLNPLIYSLRNKEVTRAFMKILGKGKSESELPHKLYVLLFAKFFFLISIFFYDVKILALIMYIA [OR2M2]
Given back: 134
